The following compounds are shown together with reported ABSOLUTE EOSINOPHIL values.
- Species: Rattus norvegicus
- assay.method.text: DrugMatrix - Regimen: Daily Repeat
- Assay type: toxicity, organism-based, Sprague-Dawley
- Set-up: regimen Daily Repeat, gender Male, age 6-8 weeks
- assay.setup: in vivo, po, 0 mg/kg, 72 h, tissue Blood, route oral GAVAGE, dose level Control, time 3 day, […]
Express the result in CELLS/uL but write the number alone.

Here is how some compounds turned out for ABSOLUTE EOSINOPHIL.
{"columns": ["compound", "output.unit", "observed.result"],
 "data": [
  ["CC(=O)Nc1nnc(S(N)(=O)=O)s1 [ACETAZOLAMIDE]", "CELLS/uL", 41.83],
  ["CN(CCOc1ccc(CC2SC(=O)NC2=O)cc1)c1ccccn1 (stereo not drawn)", "CELLS/uL", 14],
  ["CC[C@H](C)C(=O)O[C@H]1C[C@@H](C)C=C2C=C[C@H](C)[C@H](CC[C@@H]3C[C@@H](O)CC(=O)O3)[C@H]21", "CELLS/uL", 52.33],
  ["OCCN1CCN(CCCN2c3ccccc3Sc3ccc(C(F)(F)F)cc32)CC1", "CELLS/uL", 0],
  ["C#C[C@]1(O)CC[C@H]2[C@@H]3CCc4cc(O)ccc4[C@H]3CC[C@@]21C", "CELLS/uL", 104.17],
  ["NC[C@@H]1O[C@H](O[C@H]2[C@@H](O)[C@H](O[C@@H]3[C@@H](O)[C@H](N)C[C@H](N)[C@H]3O[C@H]3O[C@H](CN)[C@@H](O)[C@H](O)[C@H]3N)O[C@@H]2CO)[C@H](N)[C@@H](O)[C@@H]1O", "CELLS/uL", 33]
]}

# input compound: "CCn1cc(C(=O)O)c(=O)c2cc(F)c(N3CCNCC3)nc21" ; wanted: its ABSOLUTE EOSINOPHIL
104.17

* * *

Measured MEAN CORPUSCULAR HEMOGLOBIN, listed per entry for reference.
- Species on record: Rattus norvegicus
- assay.method.text: DrugMatrix - Regimen: Daily Repeat
- Format: toxicity, organism-based, Sprague-Dawley
- Parameters: regimen Daily Repeat, gender Male, age 6-8 weeks
- assay.setup: in vivo, po, 100 mg/kg, 120 h, tissue Blood, route oral GAVAGE, dose level Low, time 5 day, vehicle .5 % CMC
Respond with the bare value in pg.

Would you please look over these solved cases?
{"columns": ["compound", "output.unit", "MEAN CORPUSCULAR HEMOGLOBIN"],
 "data": [
  ["Nc1nc2c(c(=O)[nH]1)N(C=O)C(CNc1ccc(C(=O)N[C@@H](CCC(=O)O)C(=O)O)cc1)CN2 (some centres undefined) [LEUCOVORIN]", "pg", 24.4],
  ["CC[C@]1(O)CC[C@H]2[C@@H]3CCC4=CCCC[C@@H]4[C@H]3CC[C@@]21C", "pg", 20.37],
  ["CC=Cc1ccc(O)c(OC)c1 [ISOEUGENOL]", "pg", 22.57]
]}

Now look at this entry.
Value lookup for MEAN CORPUSCULAR HEMOGLOBIN; key = C#C[C@]1(O)CC[C@H]2[C@@H]3CCC4=Cc5oncc5C[C@]4(C)[C@H]3CC[C@@]21C [DANAZOL]
24.2

* * *

- Species on record: Rattus norvegicus
- assay.method.text: DrugMatrix - Regimen: Daily Repeat
- Type: toxicity, organism-based, Sprague-Dawley
- Parameters: regimen Daily Repeat, gender Male, age 6-8 weeks
- assay.setup: in vivo, po, 0 mg/kg, 2184 h, tissue Blood, route oral GAVAGE, dose level Control, time 91 day, vehicle .5 % CMC
Consider the following compounds and their measured ABSOLUTE SEGMENTED NEUTROPHIL readings.
API: value field is a number in cells/µL; no unit string.

{"columns": ["smiles.repr", "output.unit", "ABSOLUTE SEGMENTED NEUTROPHIL"],
 "data": [
  ["Clc1cc2c(cc1Cl)Oc1cc(Cl)c(Cl)cc1O2", "cells/µL", 1530]
]}

Shift focus to the following entry.
Using the record for "O=c1cc(-c2ccccc2)oc2ccc3ccccc3c12" , report its ABSOLUTE SEGMENTED NEUTROPHIL.
1530

* * *

- Species: Rattus norvegicus
- assay.method.text: DrugMatrix - Regimen: Daily Repeat
- Assay type: toxicity, organism-based, Sprague-Dawley
- Parameters: regimen Daily Repeat, gender Male, age 6-8 weeks
- assay.setup: in vivo, po, 0 mg/kg, 120 h, tissue Plasma, route oral GAVAGE, dose level Control, time 5 day, […]
Entries and their ALBUMIN

Some compounds with known ALBUMIN results, for comparison:
{"columns": ["compound", "ALBUMIN"],
 "data": [
  ["CCn1cc(C(=O)O)c(=O)c2cc(F)c(N3CCNCC3)nc21 [ENOXACIN]", "3.9 G/DL"],
  ["CC(CCc1ccc(O)cc1)NCCc1ccc(O)c(O)c1 (stereo not drawn) [DOBUTAMINE]", "4.07 G/DL"],
  ["CC(C)Cc1ccc(CC(=O)O)cc1 [IBUFENAC]", "4.12 G/DL"],
  ["C#C[C@]1(O)CC[C@H]2[C@@H]3CCc4cc(O)ccc4[C@H]3CC[C@@]21C [ETHINYL ESTRADIOL]", "3.9 G/DL"],
  ["CC(=O)Nc1nnc(S(N)(=O)=O)s1 [ACETAZOLAMIDE]", "4.07 G/DL"]
]}

Reported ALBUMIN for CC[C@H](C)C(=O)O[C@H]1C[C@@H](C)C=C2C=C[C@H](C)[C@H](CC[C@@H]3C[C@@H](O)CC(=O)O3)[C@H]21 [LOVASTATIN] : what is it?
4 G/DL

So what does the record say about ALBUMIN for CN(CCOc1ccc(CC2SC(=O)NC2=O)cc1)c1ccccn1 (stereo not drawn) [ROSIGLITAZONE] ?
3.97 G/DL

Given the compound COc1ncnc(NS(=O)(=O)c2ccc(N)cc2)c1OC [SULFADOXINE] , what is its reported ALBUMIN?
4.07 G/DL

* * *

The following compounds are shown together with reported ERYTHROCYTE COUNT values.
- Species: Rattus norvegicus
- assay.method.text: DrugMatrix - Regimen: Daily Repeat
- Assay type: toxicity, organism-based, Sprague-Dawley
- Design: regimen Daily Repeat, gender Male, age 6-8 weeks
- assay.setup: in vivo, po, 0 mg/kg, 120 h, tissue Blood, route oral GAVAGE, dose level Control, time 5 day, vehicle 100 % WATER
Answer with a number only, understood to be in x10E6/uL.

ERYTHROCYTE COUNT for "O=C(O)c1cccnc1" ?
5.54

Record request: ERYTHROCYTE COUNT value, item "CC[C@H]1OC(=O)[C@H](C)[C@@H](O[C@H]2C[C@@](C)(OC)[C@@H](O)[C@H](C)O2)[C@H](C)[C@@H](O[C@@H]2O[C@H](C)C[C@H](N(C)C)[C@H]2O)[C@](C)(O)C[C@@H](C)CN(C)[C@H](C)[C@@H](O)[C@]1(C)O"
5.41

* * *

- Species on record: Rattus norvegicus
- assay.method.text: DrugMatrix - Regimen: Daily Repeat
- Format: toxicity, organism-based, Sprague-Dawley
- Design: regimen Daily Repeat, gender Male, age 6-8 weeks
- assay.setup: in vivo, po, 0 mg/kg, 120 h, tissue Plasma, route oral GAVAGE, dose level Control, time 5 day, vehicle .5 % CMC
Label MET when LIPASE is strictly below 10 u/L; at or above that, label NOT MET.

Examples from the recorded data:
{"columns": ["molecule", "assigned.class"],
 "data": [
  ["CC(C(=O)O)c1ccc(-c2ccccc2)c(F)c1 (stereo not given)", "MET"],
  ["C[C@@H]1CC[C@H]2[C@@H](C)C(=O)O[C@@H]3O[C@@]4(C)CC[C@@H]1[C@]32OO4", "MET"]
]}

Dear reviewer, please state whether "COc1ccc(/C=C/C(=O)Nc2ccccc2C(=O)O)cc1OC" has LIPASE strictly beneath 10 u/L.
MET

Please state whether LIPASE is below 10 u/L for Cc1cnc(C(=O)NCCc2ccc(S(=O)(=O)NC(=O)NC3CCCCC3)cc2)cn1 [GLIPIZIDE]
MET

* * *

- Species on record: Rattus norvegicus
- assay.method.text: DrugMatrix - Regimen: Daily Repeat
- Type: toxicity, organism-based, Sprague-Dawley
- Parameters: regimen Daily Repeat, gender Male, age 6-8 weeks
- assay.setup: in vivo, po, 0 mg/kg, 72 h, tissue Plasma, route oral GAVAGE, dose level Control, time 3 day, […]
reported.metric: ALANINE AMINOTRANSFERASE
The number alone won't do; follow it with the unit.

Previously resolved entries follow.
{"columns": ["molecule", "reported.metric", "observed.result"],
 "data": [
  ["CC[C@H](C)C(=O)O[C@H]1C[C@H](O)C=C2C=C[C@H](C)[C@H](CC[C@@H](O)C[C@@H](O)CC(=O)O)[C@H]21 [PRAVASTATIN]", "ALANINE AMINOTRANSFERASE", "67.5 u/L"],
  ["CN(CCOc1ccc(CC2SC(=O)NC2=O)cc1)c1ccccn1 (stereo unspecified) [ROSIGLITAZONE]", "ALANINE AMINOTRANSFERASE", "67.5 u/L"],
  ["CC[C@H](C)C(=O)O[C@H]1C[C@@H](C)C=C2C=C[C@H](C)[C@H](CC[C@@H]3C[C@@H](O)CC(=O)O3)[C@H]21 [LOVASTATIN]", "ALANINE AMINOTRANSFERASE", "75.33 u/L"],
  ["COc1ncnc(NS(=O)(=O)c2ccc(N)cc2)c1OC [SULFADOXINE]", "ALANINE AMINOTRANSFERASE", "72.83 u/L"],
  ["OCCN1CCN(CCCN2c3ccccc3Sc3ccc(C(F)(F)F)cc32)CC1 [FLUPHENAZINE]", "ALANINE AMINOTRANSFERASE", "69.67 u/L"]
]}

Any idea what ALANINE AMINOTRANSFERASE was measured for CC(=O)Nc1nnc(S(N)(=O)=O)s1 [ACETAZOLAMIDE] ?
72.83 u/L

Return reported ALANINE AMINOTRANSFERASE; argument: CC(CCc1ccc(O)cc1)NCCc1ccc(O)c(O)c1 (stereo unspecified) [DOBUTAMINE]
46.67 u/L
